src = patent US20200071424A1

Catalogue of kon values
system-name: T1, human [1-305]-mouse chimeric EL (human; mouse, UniProt Q9WVG5 306-500)
T1 construct: Heparin extract, captured or detected by an anti-C2-tag antibody; also called human-mouse chimeric EL
T1 sequence: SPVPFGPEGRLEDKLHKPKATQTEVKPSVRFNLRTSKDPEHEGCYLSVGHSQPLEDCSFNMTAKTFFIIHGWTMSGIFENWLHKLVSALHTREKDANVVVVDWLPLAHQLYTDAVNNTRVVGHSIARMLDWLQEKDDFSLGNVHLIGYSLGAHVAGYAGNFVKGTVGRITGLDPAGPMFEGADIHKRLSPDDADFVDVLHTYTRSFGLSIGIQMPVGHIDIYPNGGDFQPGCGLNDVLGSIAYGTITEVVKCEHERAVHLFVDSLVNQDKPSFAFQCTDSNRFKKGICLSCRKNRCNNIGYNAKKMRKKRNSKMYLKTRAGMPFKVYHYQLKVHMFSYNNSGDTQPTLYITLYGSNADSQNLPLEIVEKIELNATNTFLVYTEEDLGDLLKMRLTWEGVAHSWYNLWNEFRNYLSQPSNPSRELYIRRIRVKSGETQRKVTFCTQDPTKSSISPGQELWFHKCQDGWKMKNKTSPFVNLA
protocol-description: Biacore; EL captured by anti-C2-tag Ab; bivalent fit
# output: number + unit

kon lookup needed for 16E7 (antibody, mouse IgG1, V domains shown, mouse IgG1 from hybridoma) VH: EVKLVESGGGLVQPGGSLKLSCAASGFTFSSYTMSWVRQTPEKRLELVAEISFTRSRAFYPDTVKGRFTISRDNAKNTLYLQMSSLKSEDTAMYYCARLGGNNYDYWYFDVWGTGTTVTVSS VL: DIVLTQSPTSLAVSLGQRATISCRASESVEYYGTSLMQWYQQKPGQRPKLLIYAASNVESGVPARFSGSGSGTDFSLNIHPVEEDDIAMYFCQQSWKVPFTFGSGTKLEIK , thanks. 95000 M⁻¹ s⁻¹

For 23H8 (antibody, mouse IgG2a, V domains shown, mouse IgG2a from hybridoma; also called 23H8 (mouse mAb)) VH: EVQLQQSGPELLKPGASVKISCKASGYTFTDNTIHWVKQSHGKSLEWIGHINPYYGGTNNNEKFKDKATLTVDKSSSTAYMELRSLTSEDSAIYYCARKGIYYSSPFDYWGQGTTLTVSS VL: DIQMTQTTSSLSASLGDRVTISCRASQDINNYLNWYQQKPDGTVKLLISYTSKLHSGVPSRFSGSGSGTDYSLTISNLEREDFATYFCQQGNTLPFTFGSGTNLEIK , what is its reported kon? 120000 M⁻¹ s⁻¹

Find the recorded kon belonging to 14E1 (antibody, mouse IgG1, V domains shown, mouse IgG1 from hybridoma) VH: QVQLQQSGAELVKPGASVRLSCKASGYTFTKYTIHWVKQRSGQGLEWIGWFYPGSDSIKYNEKFKDKATLTADKSSRTVYMELSRLTSEDSAVYFCARHEEYTNSLAYWGQGTLVTVSA VL: DIQMTQTTSSLSASLGDRVTISCRASQDISNYLNWYQQQPDGTVKLLIYYTSRLHSGVPSRFSGSGSGTDYSLTISNLEQEDIATYFCQQGYTLPWTFGGGTNLEIK and report it. 42000 M⁻¹ s⁻¹

Entry 53A11 (antibody, mouse IgG2a, V domains shown, mouse IgG2a from hybridoma; also called 53A11 (mouse mAb)) VH: EVQLQQSGPELLKPGASVKISCKASGYTFTDYTMHWVKQSHGKSLEWIGGINPYYGGTTYNEKFKDKATLTVDKSSSTAYMELRSLTSEDSAVYYCAKGDYYGGSYNYWGQGTTLTVSS VL: DIVLTQSLATLSVTPGDSVSLSCRASQDISNSLHWYQQKSHESPRLLIKYASQSISGIPSRFSGSGSGTDFTLSINSVETEDFGMYFCQQSNSWPYTFGGGTKLEIK has what kon? 180000 M⁻¹ s⁻¹
